Value source: ChEMBL document CHEMBL1153306

For each of the molecules below, state its MIC.
System: Aspergillus flavus
Assay: Antimicrobial activity against Aspergillus flavus after 48 hrs by broth microdilution technique
Type: functional

Query block: Need MIC of CCCCOC(=O)c1cc(O)c(O)c(O)c1 [BUTYL GALLATE] , thanks.
Result block: > 250 µg/mL

Query block: # input molecule: C[C@@H]1[C@H](O)[C@@H](C)/C=C/C=C/C=C/C=C/C=C/C=C/C=C/[C@H](O[C@@H]2O[C@H](C)[C@@H](O)[C@H](N)[C@@H]2O)C[C@@H]2O[C@](O)(C[C@@H](O)C[C@@H](O)[C@H](O)CC[C@@H](O)C[C@@H](O)CC(=O)O[C@H]1C)C[C@H](O)[C@H]2C(=O)O [AMPHOTERICIN B] ; wanted: its MIC
Result block: 0.5 µg/mL

Query block: Item CCCCCCCCCCCOC(=O)c1cc(O)c(O)c(O)c1 [UNDECYL GALLATE] has what recorded MIC?
Result block: > 250 µg/mL
